This collection of values is drawn from the supplement of paper PMC11865577.

- System: TO-3-N3-2 (biotin conjugate)
- Test: pull-down binding Z-score (relative to library population); higher = stronger binding
- Experimental conditions: RNA library: Library-2
Entries get a class label from measured pull-down binding Z-score. See ranges: A (below -0.3), B (-0.3 to below 0.06), C (0.06 or more)

sequence_record="CAAUCACAUGUAAUUAGGUGUGAUUG [hsa-mir-510]" group=A
sequence_record=GCUAGUCUUAAUGGAGUCACAUUAAUUGGAGAAGC group=C
sequence_record="ACCAUAGUCAUAAGUUAGGAGAUGUUAGAGCUGUGAGU [hsa-mir-4286]" group=C
sequence_record="UCAGGCUUUAAUGUUUGAAGUAAUGUCAGU [hsa-mir-6874]" group=C
sequence_record="GGAUGGUCUUCAAUCC [IAV_invivo_PB1_2_Motif_23+IAV_invivo_PB1_2_Motif_23]" group=B
sequence_record="CUUGCUGUGACAUGACAAAAAUAAG [hsa-mir-302d]" group=C
sequence_record="GCUUCCACUGAGAAGU [DMSMaPseq_invitro_SARS-CoV-2_Motif_384]" group=A
sequence_record="GGCUAUGGUUUCCAGAGCC [IAV_invivo_PB1_2_Motif_37+IAV_invivo_PB1_2_Motif_37]" group=B
sequence_record="UGUACAUCUUCUUUGCAUCAUUUUAUUAUGUAUGGAAAAGUUAUGUGCA [SHAPE_invitro_SARS-CoV-2_Motif_147]" group=A
sequence_record="UCUUAGCACGGGGUCUAAGG [hsa-mir-4747]" group=B
sequence_record="UCAGCUGUAAUACAUGGAUUGGCUGG [hsa-mir-30b]" group=B
sequence_record="GCCUUUCAACAUAAUGGC [hsa-mir-548w]" group=B
sequence_record="GAGACUUUGUGAUUUGUCUCCAAAGCCUC [hsa-mir-6862-2_6862-1]" group=A
sequence_record="GAUGGAGGAAUCACAUGAAUUCAUC [hsa-mir-2115]" group=A
sequence_record="ACUUUCUGUUUGAAAGAAAACAAAGU [hsa-mir-519e]" group=A
sequence_record="CAAACCGGACCUGAGCGUUUUG [hsa-mir-375]" group=C
sequence_record="AUUUUUCUAAACUGAUAAAU [DMSMaPseq_invitro_SARS-CoV-2_Motif_131]" group=B
sequence_record="GCUGAGGUUGCGUUGACGCUCGC [hsa-mir-1292]" group=B
sequence_record=AAUUAUAAAUUACCAGAUGAUUUUACAGGCUGCGUUAUAGCUUGGAAUUCUAACAAUCUUGAUUCUAAGGUUGGUGGUAAUUAUAAUU group=B
sequence_record=CCACAUUUUCACCGAGGCCACGCGGAGUACGAUCGAGUGUACAGUGAACAAUGCUAGG group=C
sequence_record="GGUCUCCGACGGAGGCC [IAV_invivo_PB1_2_Motif_32+IAV_invivo_PB1_2_Motif_32]" group=B
sequence_record=UGCAGAUUCAACUUUGAUUGGUGAUUGUGCA group=C
sequence_record="UGCUGUUGCUGUGAAAGCUGA [hsa-mir-6823]" group=C
sequence_record="GAAUUCGCUUUAUUUAUGUUGAAUC [hsa-mir-377]" group=A
sequence_record="GGCGACUGGUGUCUAAUUUGUUUGUC [hsa-mir-4429]" group=B
sequence_record="GGUCCAGCAACAGCUCAAAUGGCC [IAV_invivo_PB1_2_Motif_29+IAV_invivo_PB1_2_Motif_29]" group=A
sequence_record="GGGAGCAUGAACAAUGUUUCUCACUCCC [hsa-mir-3162]" group=A
sequence_record="CCUUCCAAUACCUGUAAGCAGAAGG [hsa-mir-3158-2]" group=C
sequence_record="ACUGAACCAGCUUCAAACAAGUUCACU [hsa-mir-653]" group=B
sequence_record="AAAUAAGCUCCAUAUCAAUGAGAAUUUCAAUGGGAUUAUGUG [hsa-mir-4791]" group=B
sequence_record="GUUGGGCAUCCACAGUCUCCCACC [hsa-mir-1911]" group=A
sequence_record="GGAGACCCUAUACAUACCUGUUUCC [hsa-mir-5581]" group=B
sequence_record="GCCUGCCCUGAGUCCCCCAGCAGGU [hsa-mir-3907]" group=C
sequence_record="CAGUGCUUUUAGAAAAUUUGUGUG [hsa-mir-581]" group=B
sequence_record=UCCUGUGGUAAUUUUAAAGUUACAAAAGGA group=A
sequence_record="AGUCCGUGCAUCCGCCCUUCGAUGCUUGGGUU [hsa-mir-3182]" group=A
sequence_record="GUUUGAUAGUUUAGACACAAAC [hsa-mir-3591]" group=C
sequence_record="UACAAUUUUUUUUUUUUUAAAUUUUA [hsa-mir-1303]" group=C
sequence_record="CAGGUAUGAAUGAUACUUACCUG [U1snRNP5ss-11]" group=C
sequence_record="AACGGGGCGGGCCGGGGGCGGGGUAA [G4_2A2_VEGF-Pu22]" group=C

====

- System: TO-3-N3 (biotin conjugate)
- Test: pull-down binding Z-score (relative to library population); higher = stronger binding
- Experimental conditions: RNA library: Library-2
Everything with pull-down binding Z-score lower than -0.4 is criterion not met; everything else, including exactly -0.4, is criterion met.

sequence_record="GCCAGCAACCUGAUUACCCCUCUUUGGC [hsa-mir-6851]" group="criterion not met"
sequence_record="CAGCUUGCUCUGCUUU [hsa-mir-4303]" group="criterion met"
sequence_record=UUAAGUGACACACUUAA group="criterion not met"
sequence_record=GAUGGUGGCUGUAUUAAUGCUAACCAAGUCAUCGUC group="criterion met"
sequence_record=AAUUGAUUCUUACUUUGUAGUUAAGAGACACACUUUCUCUAACUACCAACAUGAAGAAACAAUU group="criterion met"
sequence_record=UCUAACUUUAGAGUCCAACCAACAGAAUCUAUUGUUAGA group="criterion met"

====

- System: TO-3-N3 (biotin conjugate)
- Test: pull-down binding Z-score (relative to library population); higher = stronger binding
- Experimental conditions: RNA library: Library-2
Is pull-down binding Z-score at least -0.03? Then criterion met. If not, criterion not met.

sequence_record="GGCCCGAGUGAUGGGCU [IAV_invivo_NA_6_Motif_9+IAV_invivo_NA_6_Motif_9]" group="criterion not met"
sequence_record="GGUGCAAAGCCUGCCCGCCCC [hsa-mir-5090]" group="criterion not met"
sequence_record="GUUUGAUAGUUUAGACACAAAC [hsa-mir-3591]" group="criterion met"
sequence_record="CCUGCCUCAGAACUACUGAACAGAGUCACUGGGUGUGGA [hsa-mir-1289-2]" group="criterion not met"
sequence_record="UCCCAGCCACUCUGGAGG [hsa-mir-4419b]" group="criterion met"
sequence_record="GGCGGUGAAGCUCC [hsa-mir-4532]" group="criterion not met"
sequence_record="AUUGAGUUACCUUUCUGACUUUCCCACU [hsa-mir-28]" group="criterion met"
sequence_record="AUUGUUGCCUCUGCAUGUUACAAU [hsa-mir-8066]" group="criterion not met"
sequence_record="GCGCUGCCAGAAACUGGCGAGCGC [bulge-G]" group="criterion not met"
sequence_record="GCUUAUACGUGCCCUUGCU [hsa-mir-8075]" group="criterion not met"
sequence_record="UGAAUUGAAAUGCGUUACAUUCA [hsa-mir-95]" group="criterion met"
sequence_record="GUGAUAGUAAUAAAGUCUCAU [hsa-mir-135a-2]" group="criterion not met"
sequence_record="AAGAGGUAAGAAGAAGUGAAGCCCUCUU [hsa-mir-4778]" group="criterion not met"
sequence_record="GUGAUAGGAUUUAUCAC [hsa-mir-4999]" group="criterion not met"
sequence_record="UGCUAUUAGAAAGUAAUGGCA [hsa-mir-548ba]" group="criterion met"
sequence_record="UUGCUCACGGUAAGAAAAACAUGAGUAA [hsa-mir-8062]" group="criterion met"
sequence_record="UGGGUAGGAAUAUCCUGGAUCCCCU [hsa-mir-3189]" group="criterion met"
sequence_record="AGGUCAAAUCAAUGAUAUGAUUUUAUCU [SHAPE_invitro_SARS-CoV-2_Motif_388]" group="criterion not met"
sequence_record="ACCAUAUCUAAGCUAAUGUGGUGGU [hsa-mir-876]" group="criterion not met"
sequence_record="CCCACCCUGAGUUUUGGUGGG [hsa-mir-6508]" group="criterion not met"
sequence_record="GUGUUUAUUUUUUACUAAAUAG [hsa-mir-4766]" group="criterion not met"
sequence_record="ACCAAUGUGCUAUGAGGCCCAAUUUCACUAUUAAGGGUUCAUUCCUUAAUGGUUCAUGUGGUAGUGUUGGU [SHAPE_invivo_SARS-CoV-2_Multi_27_ComplexLevel_1]" group="criterion not met"

====

- Tested on: G-clamp-N3 (biotin conjugate)
- Test: pull-down binding Z-score (relative to library population); higher = stronger binding
- Experimental conditions: RNA library: Library-1 (pre-miRNA loops + repeats)
Measurement kind: pull-down binding Z-score

sequence_record="CUGCUGCUGCUGCUGCUGCUGCUGCUGCUGCUGCUGCUGCUGCUGCUG [r(CUG)16]" reported_measurement=2.5
sequence_record="UGAGCUGUGAUGUUGCUCUCGAGCUGG [hsa-mir-769]" reported_measurement=-0.872
sequence_record="UGGACUGUGUACCAAUUUCCA [hsa-mir-194-1]" reported_measurement=0.055
sequence_record="GGACAGGGAUUCUUUUCACUGUU [hsa-mir-599]" reported_measurement=1.08
sequence_record="UCUUUGGUAAUAAGGUUUGGCAAAGA [hsa-mir-576]" reported_measurement=1.47
sequence_record="UGGGUCAAGGAGCCCA [hsa-mir-4530]" reported_measurement=0.476
sequence_record="GGUUUUUACCAUUAAAACC [hsa-mir-548aw]" reported_measurement=-0.37
sequence_record="CCGGGGCAGGAGACCCCGCG [hsa-mir-1470]" reported_measurement=-0.305
sequence_record="UGUUCAGUGGGAUUUGGAGA [hsa-mir-8061]" reported_measurement=-0.118
sequence_record="UUGUUCUGAUGUACUACGACAA [hsa-mir-7-3]" reported_measurement=-1.28
sequence_record="GGGCCAGUCUGACCGUUUCUAGGCG [hsa-mir-551a]" reported_measurement=0.753
sequence_record="UGCCCUAGCGGCU [hsa-mir-4268]" reported_measurement=-0.151
sequence_record="UGCCACCCAGCCCUGCAGAGCCCCUGACUC [hsa-mir-6814]" reported_measurement=-1.17
sequence_record="ACAGCGCCACGGAAGAGGACGCA [hsa-mir-941-4_941-5_941-2_941-3_941-1]" reported_measurement=-0.758
sequence_record="GCUGCCAUCUCCCACUGGCUGC [hsa-mir-4736]" reported_measurement=-0.492
sequence_record="GUGGCCUUGGACAAGCCUCUUGGUUAC [hsa-mir-4672]" reported_measurement=-0.419
sequence_record="UCACUGUGAACAGUCUCAGUCAGUGA [hsa-mir-183]" reported_measurement=-0.0454
sequence_record="GACAUUGCCAGAGGAUGGGCAGCAGAC [hsa-mir-6855]" reported_measurement=2
sequence_record="GCUGGAGUAAGGGCACGCCCGGGGCUGC [hsa-mir-4758]" reported_measurement=1.11
sequence_record="GUCACAAAUUCAAAUAAAGUGAG [hsa-mir-4693]" reported_measurement=-1.04
sequence_record="CACUAAUGUGAUUAAUGUUGUUGUG [hsa-mir-3657]" reported_measurement=-1.39
sequence_record="CACGAGAUUGGGUUGUGCAGAGGCUGACACUUG [hsa-mir-5004]" reported_measurement=0.93
sequence_record="GCUUAUGGGGAUAUUGUGGUUGAUCUGUUCUAUCCAGAUGAC [hsa-mir-1261]" reported_measurement=0.854
